Target: ACSS2 (Homo sapiens)
Test: biochemical
Reported values of IC50 for individual entries

Some compounds with recorded IC50:
CC1=NN(c2cccc(C(=O)OC(C)C)c2)C(=O)C1C(=O)Nc1cccc(-c2ccco2)c1 (centres unmarked) [compound 237] = 6 to 100 nM
CC1=NN(C2CCN(C)CC2)C(=O)C1C(=O)Nc1ccccc1 (centres unmarked) [compound 221] = > 100000 nM
CCNC(c1cccc(NC(=O)C2C(=O)N(c3ccccc3)N=C2C)c1)C(F)(F)F (centres unmarked) [compound 176] = 1000 to 100000 nM
CC1=NN(c2ccccc2)C(=O)C1C(=O)Nc1cccc(C2CCCC2)c1 (centres unmarked) [compound 146] = 100 to 1000 nM
COc1ccc(N2N=C(C)C(C(=O)Nc3cccc(C(C)(F)F)c3)C2=O)cc1C (centres unmarked) [compound 303] = 0.01 to 6 nM
COc1ccc(N2N=C(C)C(C(=O)Nc3cccc(C(C)(F)F)c3)C2=O)cc1-c1cccnc1 (centres unmarked) [compound 445] = 0.01 to 6 nM
CC1=NN(c2cc(Cc3ccccc3Cl)cc(-c3cccnc3)c2)C(=O)C1C(=O)Nc1cccc(C(C)(F)F)c1 (centres unmarked) [compound 406] = 0.01 to 6 nM

Continue with the compound presented below.
Supply measured IC50 of CC1=NN(c2ccncc2)C(=O)C1C(=O)Nc1cccc(-c2ccco2)c1 (centres unmarked) [compound 240] in your reply.
6 to 100 nM

* * *

# reported pIC50; entries follow
Target: UniProtKB Q9NR19
Test: biochemical
pIC50: −log10 of the molar value.

Worked set:
CC1=NN(c2ccncc2)C(=O)C1C(=O)Nc1cccc(-c2ncc[nH]2)c1 (centres unmarked) = 6.00 to 7.00
CC1=NN(c2ccc(OC(F)F)c(-c3ccncc3)c2)C(=O)C1C(=O)Nc1cccc(C(C)(F)F)c1 (centres unmarked) = 8.22 to 11.00
CC(=O)c1cccc(NC(=O)C2C(=O)N(c3cccc(C(=O)O)c3)N=C2C)c1 (centres unmarked) = 6.00 to 7.00
CC1=NN(c2cccc(C#CCNC(=O)COCCOCCOCC(=O)Nc3cccc4c3C(=O)N(C3CCC(=O)NC3=O)C4=O)c2)C(=O)C1C(=O)Nc1cccc(C(C)(F)F)c1 (centres unmarked) = 8.22 to 11.00
CCc1cccc(NC(=O)C2C(=O)N(c3ccncc3)N=C2C)c1 (centres unmarked) = 6.00 to 7.00
CC1=NN(c2ccc(OC(F)F)c(-c3ncco3)c2)C(=O)C1C(=O)Nc1cccc(C(C)(F)F)c1 (centres unmarked) = 8.22 to 11.00
CC1=NN(c2ccc(S(=O)(=O)N(C)C)cc2)C(=O)C1C(=O)Nc1cccc(C(C)(F)F)c1 (centres unmarked) = 8.22 to 11.00

// next item, pIC50 requested
Specify pIC50 for CC1=NN(c2cc(-c3ccccc3)cc(-c3cccnc3)c2)C(=O)C1C(=O)Nc1cccc(C(C)(F)F)c1 (centres unmarked) and stop.
8.22 to 11.00

* * *

Molecular target: ACSS2 (Homo sapiens, UniProt Q9NR19)
Sequence (Q9NR19 whole entry): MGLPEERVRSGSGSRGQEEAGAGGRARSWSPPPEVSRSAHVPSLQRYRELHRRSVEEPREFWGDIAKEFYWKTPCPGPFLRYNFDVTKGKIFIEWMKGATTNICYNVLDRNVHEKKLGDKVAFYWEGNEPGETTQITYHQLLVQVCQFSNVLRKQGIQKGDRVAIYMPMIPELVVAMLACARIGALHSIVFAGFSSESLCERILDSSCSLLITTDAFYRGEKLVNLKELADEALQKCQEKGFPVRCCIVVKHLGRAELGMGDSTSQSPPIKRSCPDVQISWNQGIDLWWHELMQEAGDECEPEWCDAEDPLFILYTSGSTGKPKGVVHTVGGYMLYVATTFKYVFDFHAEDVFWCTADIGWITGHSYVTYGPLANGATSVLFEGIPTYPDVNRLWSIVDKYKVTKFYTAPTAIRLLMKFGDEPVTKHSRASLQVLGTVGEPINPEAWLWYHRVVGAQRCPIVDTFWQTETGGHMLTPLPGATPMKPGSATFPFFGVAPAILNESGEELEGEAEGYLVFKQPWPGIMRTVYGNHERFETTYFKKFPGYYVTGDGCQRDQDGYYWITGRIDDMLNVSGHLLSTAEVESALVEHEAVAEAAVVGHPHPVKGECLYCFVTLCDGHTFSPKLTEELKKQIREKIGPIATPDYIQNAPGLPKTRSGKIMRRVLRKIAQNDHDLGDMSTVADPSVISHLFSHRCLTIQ
Assay: cell-based
pIC50: −log10 of the molar value.
Known pIC50 of a selection of compounds

Retrieve pIC50 measured for CCc1cccc(NC(=O)C2C(=O)N(c3ccc(OC)cc3)N=C2C)c1 (centres unmarked) and print it.
6.00 to 7.00

// Input: CC1=NN(c2ccccc2)C(=O)C1C(=O)Nc1cccc(C(C)(F)F)c1 (centres unmarked) . Output its pIC50 only.
> 7.00

// Input: CC1=NN(c2ccccc2)C(=O)C1C(=O)Nc1cccc(C2CC2)c1 (centres unmarked) . Output its pIC50 only.
6.00 to 7.00

Recall and state the measured pIC50 for CC1=NN(c2ccccc2)C(=O)C1C(=O)Nc1cccc(-c2ccco2)c1 (centres unmarked) .
> 7.00

Hello, please tell me recorded pIC50 for this one: CCc1cccc(NC(=O)C2C(=O)N(c3ccccc3)N=C2C)c1 (centres unmarked)
6.00 to 7.00

* * *

Target: UniProtKB Q9NR19
Assay: biochemical
pIC50: −log10 of the molar value.
PROPERTY NAME: pIC50

Observe how each entry below is paired with its result.
CC1=NN(c2ccc(OC(F)F)cc2)C(=O)C1C(=O)Nc1cccc(C(C)(F)F)c1 (centres unmarked) [compound 298] = 8.22 to 11.00
CC1=NN(c2cccc(C#CCNC(=O)COCCOCCOCCOCC(=O)Nc3ccc4c(c3)C(=O)N(C3CCC(=O)NC3=O)C4=O)c2)C(=O)C1C(=O)Nc1cccc(C(C)(F)F)c1 (centres unmarked) [compound 379] = 8.22 to 11.00
COc1ccc(N2N=C(C)C(C(=O)Nc3cccc(C(C)(F)F)c3)C2=O)cc1-c1ncc(C)o1 (centres unmarked) [compound 352] = 8.22 to 11.00
CC1=NN(c2cccc(C(=O)OC(C)C)c2)C(=O)C1C(=O)Nc1cccc(C(C)(F)F)c1 (centres unmarked) [compound 236] = 8.22 to 11.00

Given COc1ccc(N2N=C(C)C(C(=O)Nc3cccc(-c4cnccn4)c3)C2=O)cc1 (centres unmarked) [compound 241] , respond with its pIC50.
8.22 to 11.00

For the compound CC1=NN(c2ccccc2)C(=O)C1C(=O)Nc1cccc(S(=O)(=O)N(C)C)c1 (centres unmarked) [compound 139] , give its reported pIC50.
6.00 to 7.00

Note down pIC50 recorded for COc1ccc(N2N=C(C)C(C(=O)Nc3cccc(C(C)(F)F)c3)C2=O)c(C)c1 (centres unmarked) [compound 302]
6.00 to 7.00

Give the measured pIC50 for CC1=NN(c2ccc(OC(F)F)cc2)C(=O)C1NC(=O)c1cccc(C(C)(F)F)c1 (centres unmarked) [compound 341]
6.00 to 7.00

* * *

Molecular target: ACSS2 (Homo sapiens, UniProt Q9NR19)
Assay: cell-based
Recorded measurements of IC50, one per entry

Answered examples (2):
COc1ccc(N2N=C(C)C(C(=O)Nc3cccc(C(C)(F)F)c3)C2=O)cc1-c1ccccc1 (stereo not shown) = 0.5 to 50 nM
COc1ccc(N2N=C(C)C(C(=O)Nc3cccc(-c4ncc[nH]4)c3)C2=O)cc1 (stereo not shown) = > 100 nM

Specify IC50 for CC1=NN(c2cccc(C(F)(F)F)c2)C(=O)C1C(=O)Nc1cccc(-c2ncco2)c1 (stereo not shown) and stop.
> 100 nM

// fetch IC50 given entry CC1=NN(c2ccc(OC(F)F)c(-c3ccccc3)c2)C(=O)C1C(=O)Nc1cccc(C(C)(F)F)c1 (stereo not shown)
50 to 100 nM

Name the recorded IC50 of the molecule listed here: CCc1cccc(NC(=O)C2C(=O)N(c3ccc4c(c3)OCO4)N=C2C)c1 (stereo not shown)
0.5 to 50 nM

Give the value of IC50 reported for the following: CC1=NN(c2cccc(C(=O)OC(C)C)c2)C(=O)C1C(=O)Nc1cccc(C(C)(F)F)c1 (stereo not shown)
0.5 to 50 nM

Please indicate IC50 recorded for COc1ccc(N2N=C(C)C(C(=O)Nc3cccc(-c4ccco4)c3)C2=O)cc1 (stereo not shown)
0.5 to 50 nM

Given CC1=NN(c2ccc(OC(C)(C)C)cc2)C(=O)C1C(=O)Nc1cccc(C(C)(F)F)c1 (stereo not shown) , respond with its IC50.
0.5 to 50 nM

Please indicate IC50 recorded for CC1=NN(c2ccc(OC(F)F)c(-c3ccncc3)c2)C(=O)C1C(=O)Nc1cccc(C(C)(F)F)c1 (stereo not shown)
0.5 to 50 nM

Fill in reported IC50 for this entry: COc1ccc(N2N=C(C)C(C(=O)Nc3cccc(-c4ccco4)c3)C2=O)cn1 (stereo not shown)
0.5 to 50 nM

Specify IC50 for COc1ccc(N2N=C(C)C(C(=O)Nc3cccc(-c4cnccn4)c3)C2=O)cc1 (stereo not shown) and stop.
50 to 100 nM

Please look at this molecule and report its IC50: CC1=NN(c2cccc(C(F)(F)F)c2)C(=O)C1C(=O)Nc1cccc(-c2ccco2)c1 (stereo not shown)
0.5 to 50 nM

* * *

Target: ACSS2 (Homo sapiens, UniProt Q9NR19)
Experiment: cell-based
pIC50: −log10 of the molar value.
PROPERTY NAME: pIC50

Use the examples below as a reference point.
CC1=NN(c2ccc(OC(F)(F)F)cc2)C(=O)C1C(=O)Nc1cccc(C(C)(F)F)c1 (stereo not shown) = 7.00 to 7.30
CC1=NN(c2ccccc2)C(=O)C1C(=O)Nc1cccc(C(=O)N(C)C)c1 (stereo not shown) = < 7.00
CC1=NN(c2ccc(OC(F)(F)F)c(-c3ncco3)c2)C(=O)C1C(=O)Nc1cccc(-c2ccco2)c1 (stereo not shown) = 7.30 to 9.30

Alright, here's another molecule for you.
Return the recorded pIC50 value; entry: COc1cccc(N2N=C(C)C(C(=O)Nc3cccc(C(C)(F)F)c3)C2=O)c1 (stereo not shown)
7.30 to 9.30

* * *

Listed next: entries and their corresponding IC50.
Biological target: ACSS2 (Homo sapiens, UniProt Q9NR19)
Experiment: biochemical

CC1=NN(c2ccc3ccn(C(C)C)c3c2)C(=O)C1C(=O)Nc1cccc(C(C)(F)F)c1 (stereo not shown) [compound 364] = 0.01 to 6 nM
CC1=NN(c2cccc(-c3ncco3)c2)C(=O)C1C(=O)Nc1cccc(-c2ccco2)c1 (stereo not shown) [compound 228] = 0.01 to 6 nM
CC1=NN(c2ccccc2)C(=O)C1C(=O)Nc1cccc(CO)c1 (stereo not shown) [compound 111] = 1000 to 100000 nM

Continue with the next molecule.
Please supply the value of reported IC50 for the item CC1=NN(c2cccc(C(=O)O)c2)C(=O)C1C(=O)Nc1cccc(-c2ccco2)c1 (stereo not shown) [compound 159]
6 to 100 nM
